ASSAY_TARGET: UniProt P22607
RECORDED_CONDITIONS: Compound concentration 20.0 uM, Protein concentration 2.0 uM, Result type QC Liability
Description: Thermal Shift Assay. Domain: start/stop: P449-E759
ΔTm class ranges: small value (below 0.02 °C), mid value (0.02 °C to below 1 °C), large value (1 °C or more)

- CN(C)c1ncc2cc(-c3ccc(-c4ncccc4F)cc3Cl)c(=O)n(C[C@H]3OC[C@H](N)CO3)c2n1: small value
- NC(=O)c1ccc(-c2nc(-c3ccc4c(c3)OCCO4)c(-c3ccccn3)[nH]2)cc1: large value
- COc1ccccc1S(=O)(=O)Nc1ccc2c(c1)CN(C)C(=O)N2: mid value
- Cc1cc(OCCC(C)(C)O)cc(C)c1-c1ccc(F)c2c1CC[C@H]2Oc1ccc2c(c1)OC[C@H]2CC(=O)O: small value
- Cc1nc2c(cc1F)c(-c1nnc3c(n1)NC(=O)C3(C)C)nn2Cc1cccc(F)c1F: mid value
- NC1(c2ccc(-c3nc4c(O)ccnn4c3-c3ccccc3)cc2)CCC1: mid value
- CC(=O)c1ccc2c(c1)/C(=C(/Nc1cccc(C#N)c1)c1ccc3c(c1)OCCO3)C(=O)N2: large value

###

ASSAY_TARGET: Fibroblast growth factor receptor 3 (Homo sapiens)
RECORDED_CONDITIONS: Compound concentration 20.0 uM, Protein concentration 2.0 uM, Result type QC Liability
Please respond with TRUE when measured ΔTm is strictly beneath 0.5 °C, and with FALSE in all other cases.

* CN(C)CCC[C@@]1(c2ccc(F)cc2)OCc2cc(C#N)ccc21 | TRUE
* FC(F)(F)c1ccc(CNc2ccc(Cc3c[nH]c4ncc(Cl)cc34)cn2)cn1 | FALSE
* CCCN1CCC(C#N)(NC(=O)[C@H](CC(C)(C)C)NC(=O)N2CCOCC2)CC1 | TRUE
* Nc1nccc(-c2c(-c3ccc(F)cc3)ncn2C2CCN(Cc3ccon3)CC2)n1 | FALSE
* COc1cccc(-c2c(C)c(Cc3c(F)cccc3C(F)(F)F)c3n(c2=O)[C@@H]([C@@H](N)c2ccccc2)CS3)c1F | TRUE
* O=C(O)c1ccnc(N2CC(O)(c3ccc(OCc4c(-c5c(Cl)cccc5Cl)noc4C4CC4)cc3Cl)C2)c1 | TRUE
* N=C(N)NCCC[C@H](NC(=O)CC1(CC(=O)N2CCN(C3c4ccccc4NC(=O)c4ccccc43)CC2)CCCC1)C(=O)NCCn1c(=O)n(-c2ccccc2)n(-c2ccccc2)c1=O (stereo partly drawn) | TRUE

###

ASSAY_TARGET: Peregrin (Homo sapiens) (UniProt P55201)
Sequence (P55201 whole entry): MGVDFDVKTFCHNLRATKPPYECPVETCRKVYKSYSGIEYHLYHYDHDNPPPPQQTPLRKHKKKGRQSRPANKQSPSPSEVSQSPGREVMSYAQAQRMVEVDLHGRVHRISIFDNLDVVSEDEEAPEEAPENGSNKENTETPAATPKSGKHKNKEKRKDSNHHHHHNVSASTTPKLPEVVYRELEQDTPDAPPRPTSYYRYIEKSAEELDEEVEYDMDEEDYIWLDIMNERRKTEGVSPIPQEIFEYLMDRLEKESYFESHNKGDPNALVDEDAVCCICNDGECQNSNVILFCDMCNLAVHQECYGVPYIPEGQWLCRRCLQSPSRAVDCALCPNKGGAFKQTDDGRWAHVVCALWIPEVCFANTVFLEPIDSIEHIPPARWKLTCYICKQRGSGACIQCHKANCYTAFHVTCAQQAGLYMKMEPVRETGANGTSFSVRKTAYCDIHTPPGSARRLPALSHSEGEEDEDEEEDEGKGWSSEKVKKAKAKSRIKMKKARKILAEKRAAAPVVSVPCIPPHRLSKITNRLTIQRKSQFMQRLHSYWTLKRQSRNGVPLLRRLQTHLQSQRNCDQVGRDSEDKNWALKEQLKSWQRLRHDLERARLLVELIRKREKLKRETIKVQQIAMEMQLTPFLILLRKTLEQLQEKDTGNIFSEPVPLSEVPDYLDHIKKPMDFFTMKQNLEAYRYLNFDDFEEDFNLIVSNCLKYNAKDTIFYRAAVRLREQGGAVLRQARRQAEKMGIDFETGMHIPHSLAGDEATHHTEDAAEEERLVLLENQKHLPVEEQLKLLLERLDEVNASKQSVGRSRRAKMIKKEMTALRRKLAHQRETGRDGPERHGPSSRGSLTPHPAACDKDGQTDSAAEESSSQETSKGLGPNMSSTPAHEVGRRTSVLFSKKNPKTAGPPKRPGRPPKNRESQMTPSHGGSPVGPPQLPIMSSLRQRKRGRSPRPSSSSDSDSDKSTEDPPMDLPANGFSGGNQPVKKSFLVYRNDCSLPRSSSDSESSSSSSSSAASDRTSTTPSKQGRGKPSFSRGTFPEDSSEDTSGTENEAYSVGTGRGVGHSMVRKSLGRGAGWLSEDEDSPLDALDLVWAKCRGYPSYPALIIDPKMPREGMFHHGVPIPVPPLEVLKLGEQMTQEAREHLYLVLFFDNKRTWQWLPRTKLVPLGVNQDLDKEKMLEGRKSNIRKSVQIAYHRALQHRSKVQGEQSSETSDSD
RECORDED_CONDITIONS: Compound concentration 20.0 uM, Protein concentration 2.0 uM, Result type QC Liability
METRIC: ΔTm (°C)

* NC(=O)c1ccc(-c2nc(-c3ccc4c(c3)OCCO4)c(-c3ccccn3)[nH]2)cc1 | 0.84
* CN1CC(=O)N(C)c2cnc(Nc3ccc(NC(=O)Nc4cccc(C(=O)O)c4)cc3)nc21 | -0.81
* CN(C)C(=O)c1cc2cnc(Nc3ccc(N4CCN(CCCCNC(=O)COc5cccc6c5C(=O)N(C5CCC(=O)NC5=O)C6=O)CC4)cn3)nc2n1C1CCCC1 (centres undefined) | -1.94
* CC(=O)Nc1cccc(-n2c(=O)n(C3CC3)c(=O)c3c(Nc4ccc(I)cc4F)n(C)c(=O)c(C)c32)c1 | -0.16
* CNC(=O)c1ccc2c(c1)NC(=O)/C2=C(\Nc1ccc(CN2CCCCC2)cc1)c1ccccc1 | -0.66
* CCS(=O)(=O)Nc1cccc(Oc2cc(F)cc(Nc3ccc(I)cc3F)c2NS(=O)(=O)C2CC2)c1 | -1.34
* CN(C)C(=O)Cn1cc(-c2ccc(-c3nnc4ccccn34)cc2)cn1 | -2.13
* CC(C)c1cnn2c(NCc3ccccc3)cc(NCCCCCCN)nc12 | -0.13
* Clc1ccccc1C(c1ccccc1)(c1ccccc1)n1ccnc1 | -5.05

###

ASSAY_TARGET: Fibroblast growth factor receptor 3 (Homo sapiens) (UniProt P22607)
Sequence (P22607 23-806 limits assumed): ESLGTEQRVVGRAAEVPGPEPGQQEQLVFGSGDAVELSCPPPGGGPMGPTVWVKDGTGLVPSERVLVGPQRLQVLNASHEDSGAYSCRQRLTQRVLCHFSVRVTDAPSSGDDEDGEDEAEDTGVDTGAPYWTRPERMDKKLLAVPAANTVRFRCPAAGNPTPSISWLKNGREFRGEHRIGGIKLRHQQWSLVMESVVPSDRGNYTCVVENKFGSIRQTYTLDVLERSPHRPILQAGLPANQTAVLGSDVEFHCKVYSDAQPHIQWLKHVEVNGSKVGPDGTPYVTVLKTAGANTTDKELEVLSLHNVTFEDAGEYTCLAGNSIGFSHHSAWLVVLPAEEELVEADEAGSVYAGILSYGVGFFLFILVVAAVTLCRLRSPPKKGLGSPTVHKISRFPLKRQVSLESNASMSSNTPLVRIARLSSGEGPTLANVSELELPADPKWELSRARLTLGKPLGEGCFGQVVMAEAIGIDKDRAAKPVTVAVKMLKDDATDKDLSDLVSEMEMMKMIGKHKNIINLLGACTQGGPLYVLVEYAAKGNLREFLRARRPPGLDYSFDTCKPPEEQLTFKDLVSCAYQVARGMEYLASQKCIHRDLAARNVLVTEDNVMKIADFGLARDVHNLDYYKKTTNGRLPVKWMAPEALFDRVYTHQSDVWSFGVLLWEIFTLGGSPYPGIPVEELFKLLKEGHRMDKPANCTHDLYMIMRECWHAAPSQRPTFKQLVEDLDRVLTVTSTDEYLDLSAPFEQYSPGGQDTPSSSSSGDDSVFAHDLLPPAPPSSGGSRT
RECORDED_CONDITIONS: Compound concentration 20.0 uM, Protein concentration 2.0 uM, Result type QC Liability
Please respond with class 1 when measured ΔTm is strictly beneath 0.9 °C, and with class 0 in all other cases.

- CO[C@H]1CC[C@H](N(c2cc(F)c(Oc3ncc(Cn4nccn4)cc3C(F)(F)F)cc2C(=O)O)C(=O)[C@H]2CC[C@H](C)CC2)CC1: class 1
- Cc1nnc2n1-c1sc(CCC(=O)N3CCOCC3)cc1C(c1ccccc1Cl)=NC2: class 0
- CC(=O)N(CCN(C)C)c1ccc(N/C(=C2\C(=O)Nc3cc(Cl)ccc32)c2ccccc2)cn1: class 0
- CC(F)(F)CN1C(=O)c2[nH]nc(-c3cccc4[nH]c(=O)oc34)c2C1c1ccc(Oc2cc(C(F)(F)F)cc(C(F)(F)F)c2)cc1 (configuration not stated): class 1
- Cc1cc(C2CCCNC2)ccc1Nc1ncc(Br)c(NCc2cccc3c2C(C)(C)C(=O)N3)n1 (configuration not stated): class 0
- O=C(Nc1ccc(OC(F)(F)Cl)cc1)c1cnc(N2CC[C@@H](O)C2)c(-c2cc[nH]n2)c1: class 1
- Cc1ncsc1-c1ccc(CNC(=O)[C@@H]2C[C@@H](O)CN2C(=O)[C@@H](NC(=O)C2(F)CC2)C(C)(C)C)c(OCCOc2ccc(CN3CCN(c4cc(-c5ccccc5O)nnc4N)CC3)cc2)c1: class 1
- O=C(O)c1ccc(OCCCc2ccc(OCCCCOC3CCCCC3)cc2)c(C(=O)NC2CCCC(C(=O)O)C2)c1 (configuration not stated): class 1
- Oc1c(CN2CCCC2)cc(COCc2ccccc2)c2cccnc12: class 1
- c1ccc(C2CCN(c3cnc4c(N5CCOCC5)nccn34)CC2)cc1: class 1
- O=C(O)[C@]1(Cc2cccc(Nc3nccs3)n2)CC[C@@H](Oc2cccc(Cl)c2F)CC1: class 0
- C=C[C@@]12CCc3cc(O)ccc3[C@H]1CC[C@@]1(C)[C@H]2CC[C@@H]1O: class 1
- CN1CCN(c2ccc(/C=C(\C#N)c3ccccc3Br)cc2)CC1: class 0
- Cc1cc(CN(CC(=O)Nc2ccc(Cl)cc2Cl)C2CCCCC2)ccc1OCC(=O)O: class 1
- COC(=O)c1ccc2c(c1)NC(=O)/C2=C(\Nc1ccc(-c2nccn2C)cc1)c1ccccc1: class 0
- O=C(CCSCc1ccco1)NNC(=O)N1Cc2ccccc2Oc2ccc(Cl)cc21: class 1

###

ASSAY_TARGET: Fibroblast growth factor receptor 3 (Homo sapiens)
RECORDED_CONDITIONS: Compound concentration 20.0 uM, Protein concentration 2.0 uM, Result type QC Liability
Please respond with T when measured ΔTm is strictly beneath 0.8 °C, and with F in all other cases.

• CC(C)(O)c1coc(S(=O)(=O)NC(=O)Nc2c3c(cc4c2CCC4)CCC3)c1 = F
• Nc1c(CC(=O)O)cccc1C(=O)c1ccc(Br)cc1 = T
• Cc1ccc(NS(=O)(=O)c2ccc3c(c2)C2C=CCC2C(c2ccc(C(=O)O)cc2)N3)cc1C (stereo not given) = T
• C/C(=C\C(=O)Nc1ccccc1C(=O)O)c1ccc2ccccc2c1 = F
• O=C(O)/C=C/c1ccc(Cn2ccnc2)cc1 = T
• C[C@@H](CN1CC[C@@]2(C)c3cccc(O)c3C[C@@H]1C2(C)C)OCc1ccccc1 = F
• Fc1ccc(-c2nc(-c3c(F)cccc3F)[nH]c2-c2ccncc2)cc1 = F
• CCc1nc(-c2cccc(C)c2)c(-c2ccncc2)s1 = T
• C[C@@]1(Cc2ccc(C#N)cc2)C(=O)N(c2cc(Cl)cc(Cl)c2)c2ncc(C(=O)NC3(c4nc(C5CCC5)no4)CC3)n21 = F

###

ASSAY_TARGET: UniProtKB P22607
RECORDED_CONDITIONS: Compound concentration 20.0 uM, Protein concentration 2.0 uM, Result type QC Liability
ΔTm class ranges: bottom range (below 0.5 °C), center range (0.5 °C to below 1 °C), top range (1 °C or more)

* O=C(O)c1ccc2c(c1)nc(NCc1ccccc1)c1ncncc12 | center range
* COc1cc(C(N)=O)ccc1Nc1ncc2c(n1)N(CCC(C)C)[C@H](C)C(=O)N2C | top range
* CCS(=O)(=O)Nc1cccc(Oc2cc(F)cc(Nc3ccc(I)cc3F)c2NS(=O)(=O)C2CC2)c1 | bottom range
* C[C@@H]1OCC2(CCN(c3cnc(Sc4ccnc(N)c4Cl)c(N)n3)CC2)[C@@H]1N | bottom range
* Cc1nc(Nc2cnn(C3CCNCC3)c2)nc2c1N(C)C(=O)c1cc3ccccc3cc1N2C | top range
* Cn1cnc(Cn2ccc3ccc(CNCc4[nH]c5ccccc5c4[C@@H]4NC(=O)c5ccc(O)cc54)cc32)c1 | center range
* Cc1sc(C(=O)c2cncnc2N[C@@H]2C[C@H](COS(N)(=O)=O)[C@@H](O)C2)cc1[C@@H]1NCCc2ccc(Cl)cc21 | bottom range
* COc1cc2nc(-c3cc(F)ccc3O)nc(N[C@@H]3CNC[C@H]3C(C)(C)O)c2cc1OC | top range
* Cc1cc(OC2CCS(=O)(=O)CC2)cc(C)c1-c1cccc(COc2ccc(C(=O)O)c(F)c2)c1 | top range
